# Test system: CCRIS mutagenicity, Ames/micronucleus/aberration tests
# Protocol notes: CCRIS mutagenicity studies
# Test parameters: Test System: AMES SALMONELLA TYPHIMURIUM; Strain/Indicator: TA1535; Metabolic Activation: RAT, LIVER, S-9, AROCLOR 1254; Method: STANDARD PLATE
The source made the active and inactive calls. The rule behind the calls is not given here.
Outcomes: T for active, F for inactive

| Compound | Target | Assigned label |
| --- | --- | --- |
| CC(O)CCC(=O)c1ccoc1 (stereo not drawn) | CCRIS mutagenicity, Ames/micronucleus/aberration tests | F |
| C=CC(=O)OCCCC | CCRIS mutagenicity, Ames/micronucleus/aberration tests | F |
| COC(=O)[C@@H]1O[C@@H]1c1ccccc1 | CCRIS mutagenicity, Ames/micronucleus/aberration tests | F |
| Nc1ccc(N=Nc2ccc(N)cc2)cc1 | CCRIS mutagenicity, Ames/micronucleus/aberration tests | F |
| C[C@]12C=CC3=C4CCC(=O)C=C4CC[C@H]3[C@@H]1CC[C@H]2O | CCRIS mutagenicity, Ames/micronucleus/aberration tests | F |
| CC(Cl)CCl (stereo not drawn) | CCRIS mutagenicity, Ames/micronucleus/aberration tests | T |
| C[C@]12CC[C@@H]3c4ccc(O)cc4CC[C@H]3[C@@H]1CC[C@@H]2O | CCRIS mutagenicity, Ames/micronucleus/aberration tests | F |
| CCCS(=O)(=O)n1ncc(Cl)c(Cl)c1=O | CCRIS mutagenicity, Ames/micronucleus/aberration tests | T |
| Cc1cc(C(=O)NNCc2ccccc2)no1 | CCRIS mutagenicity, Ames/micronucleus/aberration tests | F |
| Nc1cc2c3ccccc3ccc2c2ccccc12 | CCRIS mutagenicity, Ames/micronucleus/aberration tests | F |
| CN(C)C(=O)c1nc(CNC(=O)CN)n(-c2ccc(Cl)cc2C(=O)c2ccccc2Cl)n1 | CCRIS mutagenicity, Ames/micronucleus/aberration tests | F |
| CCCCCCCCCCCCOC(=O)CCSCCC(=O)OCCCCCCCCCCCC | CCRIS mutagenicity, Ames/micronucleus/aberration tests | F |
| ClNc1nc(NCl)nc(NCl)n1 | CCRIS mutagenicity, Ames/micronucleus/aberration tests | F |

* * *

# Tested on: CCRIS mutagenicity, Ames/micronucleus/aberration tests
# Protocol notes: CCRIS mutagenicity studies
# Test parameters: Test System: AMES SALMONELLA TYPHIMURIUM; Strain/Indicator: TA100; Metabolic Activation: S-9; Method: STANDARD PLATE
Activity calls are given as the source filed them. How the calls were made is not given here.
Readout type: mutagenic call

| Compound | Experimental value |
| --- | --- |
| Oc1ccc(Cl)cc1Cl | inactive; negative |
| c1ccc(Nc2ccc(Nc3ccccc3)cc2)cc1 | inactive; negative |
| COc1cccc(/C=C/c2ccc(N)cc2)c1 | active; positive |
| CCCCC[C@@](C)(O)/C=C/[C@H]1[C@H](O)CC(=O)[C@@H]1C/C=C\CCCC(=O)O | inactive; negative |
| Cc1ccc(C(C)C)cc1O | inactive; negative |
| CC(C)(C)c1cc(-c2ccccc2)ccc1NO | active; positive |
| O=C(CCCl)N=c1sn(C(=O)CCCl)c2ccccc12 | inactive; negative |
| CCCC(=O)Nc1snc2cc(Cl)ccc12 | inactive; negative |
| CC1(C)C(C(=O)OC(C#N)c2cccc(Oc3ccccc3)c2)C1(C)C (centres undefined) | inactive; negative |
| C1CSCCO1 | inactive; negative |
| O=C(CCl)Nc1snc2cc(Cl)ccc12 | active; positive |
| Nc1ccc(-c2ccc(N)c(Cl)c2)cc1Cl | active; positive |
| Cc1ccc2c(c1)c(=NC(=O)c1ccc([N+](=O)[O-])cc1)sn2C(=O)c1ccc([N+](=O)[O-])cc1 | active; positive |
| CC(O)CN(CCN(CC(C)O)CC(C)O)CC(C)O (centres undefined) | inactive; negative |
| Cc1ccc2c(c1)c(=NC(=O)CCCl)sn2C(=O)CCCl | inactive; negative |
| CC(C)(C)c1cc(Cc2cc(C(C)(C)C)c(O)c(C(C)(C)C)c2)cc(C(C)(C)C)c1O | inactive; negative |
| C#CCOCCn1cc[n+](C)c1/C=N/O | inactive; negative |
| Cc1ccco1 | inactive; negative |
| Cc1cccn2c(=O)c(-c3nnn[nH]3)cnc12 | inactive; negative |
| CC(C)CCNc1snc2ccccc12 | inactive; negative |
| CC[C@]1(O)CC2CN(CCc3c([nH]c4ccccc34)[C@@](C(=O)OC)(c3cc4c(cc3OC)N(C=O)[C@H]3[C@@](O)(C(=O)OC)[C@H](OC(C)=O)[C@]5(CC)C=CCN6CC[C@]43[C@@H]65)C2)C1 (some centres undefined) | inactive; negative |
| ONc1ccc2ccccc2c1 | active; positive |
| OCc1ccco1 | inactive; negative |
| COP(=S)(OC)SCC(=O)N(C)C=O | inactive; negative |

* * *

# System: CCRIS mutagenicity, Ames/micronucleus/aberration tests
# Protocol notes: CCRIS mutagenicity studies
# Test parameters: Test System: AMES SALMONELLA TYPHIMURIUM; Strain/Indicator: TA1537; Metabolic Activation: RAT, LIVER, S-9, AROCLOR 1254; Method: PREINCUBATION
The source made the active and inactive calls. How the calls were made is not given here.
Labels: active, inactive

| Compound | Assigned label |
| --- | --- |
| Cc1c(O)cc2c(c1O)C(=O)c1ccccc1C2=O | active |
| Oc1cc(Cl)ccc1Cl | inactive |
| C[Si](Cl)Cl | inactive |
| CCCC(=O)O[C@H]1[C@H](C)O[C@@H](O[C@H]2[C@H](N(C)C)[C@@H](O)[C@H](O[C@H]3[C@@H](CC=O)C[C@@H](C)[C@@H](O)/C=C/C=C/C[C@@H](C)OC(=O)C[C@@H](O)[C@@H]3OC)O[C@@H]2C)C[C@@]1(C)OC(=O)CC | inactive |
| Nc1ccc(-c2ccc(N)c(Cl)c2)cc1Cl | active |
| C=CC(=O)NC(C)(C)CC(C)=O | inactive |
| Fc1c(F)c(Cl)c(F)c(Cl)c1F | inactive |
| CNNC | inactive |
| O=[N+]([O-])c1cc([As](=O)(O)O)ccc1O | inactive |
| CC(O)CO (stereo not drawn) | inactive |
| C1O[C@@H]1[C@@H]1CO1 | inactive |
| O=[N+]([O-])c1cccc(Cl)c1Cl | inactive |
| CCN(CC)c1ccc2c(C)cc(=O)oc2c1 | inactive |

* * *

# Test system: CCRIS mutagenicity, Ames/micronucleus/aberration tests
# Protocol notes: CCRIS mutagenicity studies
# Test parameters: Test System: CHINESE HAMSTER V-79; Strain/Indicator: V-79/6-THIOGUANINE; Metabolic Activation: NONE
Activity calls are given as the source filed them. No rule for the calls is given here.
Classes used: active, inactive

| Molecule | Assigned label |
| --- | --- |
| O[C@@H]1C=CC=C[C@H]1O | inactive |
| CCc1c2ccccc2cc2c3c(ccc12)[C@H](O)[C@@H](O)[C@H]1O[C@@H]31 | active |
| CCCCC/C=C\C/C=C\C/C=C\C/C=C\CCCC(=O)O | active |
| C=CC=O | active |
| O=NO | active |
| O[C@@H]1[C@@H]2O[C@@H]2c2c(cc3ccc4cccc5c6ccccc6c2c3c45)[C@H]1O | active |
| OC1c2c(ccc3c2ccc2ccccc23)C2OC2C1O (stereo unspecified) | active |
| O=C(O)O | active |
| O[C@H]1[C@H]2O[C@H]2c2c(c3ccccc3c3ccccc23)[C@@H]1O | active |
| CC(C)NCC1CCc2cc(CO)c([N+](=O)[O-])cc2N1 (stereo unspecified) | active |
| CC(C)CCC[C@@H](C)[C@H]1CC[C@H]2[C@@H]3C[C@H]4O[C@]45C[C@@H](O)CC[C@]5(C)[C@H]3CC[C@]12C | active |

* * *

# Test system: CCRIS mutagenicity, Ames/micronucleus/aberration tests
# Protocol notes: CCRIS mutagenicity studies
# Test parameters: Test System: AMES SALMONELLA TYPHIMURIUM; Strain/Indicator: TA98; Metabolic Activation: RAT, LIVER, S-9, AROCLOR 1254 (10%); Method: PREINCUBATION
The source made the active and inactive calls. How the calls were made is not given here.
Classes used: active, inactive

| Molecule | Assigned label |
| --- | --- |
| COc1cc(OC)c(OC)cc1C=O | inactive |
| CC(=O)c1c(=O)cc(C)oc1=O | inactive |
| Nc1ccc(O)c(N)c1 | active |
| O=NN1CCCCC1 | inactive |
| CCCCOC(=O)c1ccccc1N | inactive |
| Cc1ccc(S(=O)(=O)Oc2ccc(N=Nc3ccc(-c4ccc(N=Nc5c(O)ccc6cc(S(=O)(=O)O)cc(S(=O)(=O)O)c56)c(C)c4)cc3C)cc2)cc1 | inactive |
| C[CH2][Hg][S]c1ccccc1C(=O)O | inactive |
| N#CCBr | inactive |
| CCOC(=O)C1OC1(C)c1ccccc1 (stereo not given) | inactive |
| COc1ccc(/C=N/n2nnc3c([nH]c4ccccc43)c2=O)cc1 | active |
| N#C/C(N)=C(/N)C#N | inactive |
| FC(Cl)(Cl)Cl | inactive |
| CCOP(=S)(OCC)SCSC(C)(C)C | inactive |
| CCCCC(CC)COP(=O)(Oc1ccccc1)Oc1ccccc1 (stereo not given) | inactive |
| CCN1CCOCC1 | inactive |
| Nc1ccc(/C=C/c2ccc(N)c(S(=O)(=O)O)c2)c(S(=O)(=O)O)c1 | inactive |
| O=P(Oc1ccccc1)(Oc1ccccc1)Oc1ccccc1 | inactive |
| O=[N+]([O-])c1cc([As](=O)(O)O)ccc1O | inactive |
| S=c1[nH]c2ccccc2[nH]1 | inactive |
| C1CCC(NC2CCCCC2)CC1 | inactive |
| NC(N)=NC(N)=NCCc1ccccc1 | inactive |
| O=C(O)c1cccc(Cl)c1 | inactive |
| O=[N+]([O-])c1c(O)c(Cl)cc(Cl)c1Cl | inactive |
| CC(COc1ccccc1)N(CCCl)Cc1ccccc1 (stereo not given) | active |
| O=C(Oc1ccccc1)c1ccccc1O | inactive |
| CCCCCCC=O | inactive |
| CCC(CO)[N+](=O)[O-] (stereo not given) | inactive |
| O=[N+]([O-])c1ccccc1CCO | inactive |
| O=C1OC(=O)c2c(Br)c(Br)c(Br)c(Br)c21 | inactive |
| Nc1c(Br)cc([N+](=O)[O-])cc1[N+](=O)[O-] | active |

Values were extracted from PubChem BioAssay AID1259407.
